This collection of values is drawn from ChEMBL document CHEMBL3822399.

Biological target: Tyrosine-protein phosphatase non-receptor type 1 (Homo sapiens, UniProt P18031)
Sequence (P18031 whole entry): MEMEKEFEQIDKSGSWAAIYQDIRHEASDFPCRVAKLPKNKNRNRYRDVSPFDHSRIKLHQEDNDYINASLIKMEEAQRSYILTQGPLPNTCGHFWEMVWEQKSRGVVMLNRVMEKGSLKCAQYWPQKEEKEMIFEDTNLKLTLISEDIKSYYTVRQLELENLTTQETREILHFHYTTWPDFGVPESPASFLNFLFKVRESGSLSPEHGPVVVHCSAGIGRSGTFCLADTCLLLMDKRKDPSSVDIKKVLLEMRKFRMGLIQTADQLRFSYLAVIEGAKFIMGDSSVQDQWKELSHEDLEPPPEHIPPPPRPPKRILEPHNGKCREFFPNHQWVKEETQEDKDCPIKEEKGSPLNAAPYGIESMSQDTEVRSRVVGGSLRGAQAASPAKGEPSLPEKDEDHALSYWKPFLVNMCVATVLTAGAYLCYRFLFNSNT
Experiment: Inhibition of recombinant PTP1B (unknown origin) using pNPP as substrate incubated for 30 mins
Returns: string. Value is met if measured IC50 is below 900 nM, and not met if it is greater than or equal to it.

Here's what some known entries look like.
CCCCOc1ccc(N(Cc2ccc(N(CC(=O)OC)S(C)(=O)=O)cc2)S(=O)(=O)Cc2ccccc2)cc1C(=O)OC not met
CCCOc1ccc(N(Cc2ccc(N(CC(=O)OC)S(C)(=O)=O)cc2)S(=O)(=O)Cc2ccccc2)cc1C(=O)OC not met
COC(=O)CN(c1ccc(CN(c2ccc(OCc3ccccc3)cc2)S(=O)(=O)Cc2ccccc2)cc1)S(C)(=O)=O not met
COC(=O)CN(c1ccc(CN(c2ccc(OCc3ccccc3)c(C(=O)OC)c2)S(=O)(=O)Cc2ccccc2)cc1)S(C)(=O)=O met

Field: next compound
Task: A record lists COC(=O)CN(c1ccc(CN(c2ccc(OCc3ccc(C)cc3)c(C(=O)OC)c2)S(=O)(=O)Cc2ccccc2)cc1)S(C)(=O)=O . Is its IC50 below 900 nM?
Result: met

---

Target sequence: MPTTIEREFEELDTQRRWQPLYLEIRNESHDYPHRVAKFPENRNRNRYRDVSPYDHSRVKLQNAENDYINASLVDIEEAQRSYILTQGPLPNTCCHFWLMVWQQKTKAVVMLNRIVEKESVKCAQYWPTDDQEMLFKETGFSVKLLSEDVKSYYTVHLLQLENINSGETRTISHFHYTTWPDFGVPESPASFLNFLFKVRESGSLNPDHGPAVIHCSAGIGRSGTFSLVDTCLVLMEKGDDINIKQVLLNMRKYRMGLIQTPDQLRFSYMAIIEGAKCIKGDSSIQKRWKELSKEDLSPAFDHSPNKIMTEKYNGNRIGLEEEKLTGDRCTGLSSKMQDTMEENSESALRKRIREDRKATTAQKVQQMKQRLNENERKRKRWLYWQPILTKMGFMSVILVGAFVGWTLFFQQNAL
Each entry below carries its reported pIC50.
pIC50 is defined as minus the log10 of a concentration measured in mol/L.

Task: Query pIC50 for COC(=O)CN(c1ccc(CN(c2ccc(OCc3ccc(C)cc3)c(C(=O)OC)c2)S(=O)(=O)Cc2ccccc2)cc1)S(C)(=O)=O
Result: 6.12

Task: Please list pIC50 recorded for the compound COC(=O)CN(c1ccc(CN(c2ccc(OCc3ccccc3)c(C(=O)OC)c2)S(=O)(=O)Cc2ccccc2)cc1)S(C)(=O)=O
Result: 6.37
